System: 996289-038-R-J1-PDC complex spheroid viability
assay-overview: Anticancer human tumor 996289-038-R-J1-PDC patient-derived colon adenocarcinoma cell line growth inhibition [CLK]
condition-description: second compound 1 µM; first compound 0.316 µM; hits give low values
measured-parameter: viability, T/C (%)
Please respond with the number in % and leave the unit unwritten.

Value lookup for viability, T/C; key = COC1C=CCC(C)C(C)S(=O)(=O)NC(=O)c2ccc3c(c2)N(CC2CCC21)CC1(CCCc2cc(Cl)ccc21)CO3 (stereo not drawn) + CN1CCN(c2cc(C(=O)Nc3cc4cc(-c5cnn(C)c5)ccc4cn3)ccn2)CC1 6.69

Moving on to C=C(F)C(=O)N1CCN(c2nc(OCC3CCCN3C)nc3c2CCN(c2cccc4cccc(Cl)c24)C3)CC1CC#N (stereo not drawn) + CNC(=O)c1ccc(Nc2nc(OC3CCCC3)c3c(-c4ccc5nc(C)oc5c4)c[nH]c3n2)c(OC)c1 59.9

Here is the next compound: CCCS(=O)(=O)Nc1ccc(F)c(C(=O)c2c[nH]c3ncc(-c4ccc(Cl)cc4)cc23)c1F + CNC(=O)c1ccc(Nc2nc(OC3CCCC3)c3c(-c4ccc5nc(C)oc5c4)c[nH]c3n2)c(OC)c1 64.9

* * *

Test system: 996289-038-R-J1-PDC complex spheroid viability
assay-overview: Anticancer human tumor 996289-038-R-J1-PDC cell line growth inhibition [CLK]; active = viability on the fitted dose curve at most 10% of control; inactive = the rest;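 also: spheroids exposed to the agents for 7 days before readout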
condition-description: second compound 10 µM; first compound 10 µM
Pick one and only one: active, inactive

Please review the entries below; each comes with its answer.
>>> assigned_class("CC(=O)O[C@H]1C(=O)[C@@]2(C)[C@H]([C@H](OC(=O)c3ccccc3)[C@]3(O)C[C@H](OC(=O)[C@H](O)[C@@H](NC(=O)c4ccccc4)c4ccccc4)C(C)=C1C3(C)C)[C@]1(OC(C)=O)CO[C@@H]1C[C@@H]2O + CNC(=O)c1ccc(Nc2nc(OC3CCCC3)c3c(-c4ccc5nc(C)oc5c4)c[nH]c3n2)c(OC)c1")
"inactive"
>>> assigned_class("C=C(F)C(=O)N1CCN(c2nc(OCC3CCCN3C)nc3c2CCN(c2cccc4cccc(Cl)c24)C3)CC1CC#N (stereo not given) + CN1CCN(c2cc(C(=O)Nc3cc4cc(-c5cnn(C)c5)ccc4cn3)ccn2)CC1")
"active"
>>> assigned_class("CCCS(=O)(=O)Nc1ccc(F)c(C(=O)c2c[nH]c3ncc(-c4ccc(Cl)cc4)cc23)c1F + CNC(=O)c1ccc(Nc2nc(OC3CCCC3)c3c(-c4ccc5nc(C)oc5c4)c[nH]c3n2)c(OC)c1")
"inactive"

Identify the outcome logged in this assay for the molecule shown: COc1ccc([C@@H](O)c2cc(-c3ncnc4cc(N5CCOCC5)ccc34)c(F)cc2Cl)nn1 + CNC(=O)c1ccc(Nc2nc(OC3CCCC3)c3c(-c4ccc5nc(C)oc5c4)c[nH]c3n2)c(OC)c1 inactive

For CC1(C)CCC(CN2CCN(c3ccc(C(=O)NS(=O)(=O)c4ccc(NCC5CCOCC5)c([N+](=O)[O-])c4)c(Oc4cnc5[nH]ccc5c4)c3)CC2)=C(c2ccc(Cl)cc2)C1 + CN1CCN(c2cc(C(=O)Nc3cc4cc(-c5cnn(C)c5)ccc4cn3)ccn2)CC1 then? active

Would you kindly repeat that for CCCS(=O)(=O)Nc1ccc(F)c(C(=O)c2c[nH]c3ncc(-c4ccc(Cl)cc4)cc23)c1F + CN1CCN(c2cc(C(=O)Nc3cc4cc(-c5cnn(C)c5)ccc4cn3)ccn2)CC1 ? active

Now give it for O=c1[nH]cc(F)c(=O)[nH]1 + CN1CCN(c2cc(C(=O)Nc3cc4cc(-c5cnn(C)c5)ccc4cn3)ccn2)CC1 too. active

* * *

System: 996289-038-R-J1-PDC complex spheroid viability
assay-overview: Anticancer human tumor 996289-038-R-J1-PDC cell line growth inhibition [CLK];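 also: spheroids exposed to the agents for 7 days before readout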
condition-description: second compound 0.316 µM; first compound 1 µM; hits give low values
So basically, if viability, T/C comes in under 60% it's Yes, and if it's 60% or more it's No.

>>> assigned_class("CCN1CCN(Cc2ccc(Nc3ncc(F)c(-c4cc(F)c5nc(C)n(C(C)C)c5c4)n3)nc2)CC1 + CNC(=O)c1ccc(Nc2nc(OC3CCCC3)c3c(-c4ccc5nc(C)oc5c4)c[nH]c3n2)c(OC)c1")
"No"
>>> assigned_class("O=c1[nH]cc(F)c(=O)[nH]1 + CN1CCN(c2cc(C(=O)Nc3cc4cc(-c5cnn(C)c5)ccc4cn3)ccn2)CC1")
"Yes"
>>> assigned_class("COc1c(OCCCN2CCOCC2)ccc2c3n(c(=NC(=O)c4cnc(N)nc4)nc12)CCN3 + CNC(=O)c1ccc(Nc2nc(OC3CCCC3)c3c(-c4ccc5nc(C)oc5c4)c[nH]c3n2)c(OC)c1")
"Yes"

In the record for Nc1ccccc1NC(=O)c1ccc(CNC(=O)OCc2cccnc2)cc1 + CNC(=O)c1ccc(Nc2nc(OC3CCCC3)c3c(-c4ccc5nc(C)oc5c4)c[nH]c3n2)c(OC)c1 , is viability, T/C less than 60%? No

Next: COc1cccc2c1C(=O)c1c(O)c3c(c(O)c1C2=O)CC(O)(C(=O)CO)CC3OC1CC(N)C(O)C(C)O1 (stereo not drawn) + CNC(=O)c1ccc(Nc2nc(OC3CCCC3)c3c(-c4ccc5nc(C)oc5c4)c[nH]c3n2)c(OC)c1 Yes

Moving on to COc1cccc2c1C(=O)c1c(O)c3c(c(O)c1C2=O)CC(O)(C(=O)CO)CC3OC1CC(N)C(O)C(C)O1 (stereo not drawn) + CN1CCN(c2cc(C(=O)Nc3cc4cc(-c5cnn(C)c5)ccc4cn3)ccn2)CC1 Yes

Input CCc1c2c(nc3ccc(O)cc13)-c1cc3c(c(=O)n1C2)COC(=O)[C@]3(O)CC + CNC(=O)c1ccc(Nc2nc(OC3CCCC3)c3c(-c4ccc5nc(C)oc5c4)c[nH]c3n2)c(OC)c1 Yes

* * *

System: 996289-038-R-J1-PDC complex spheroid viability
assay-overview: Anticancer human tumor 996289-038-R-J1-PDC cell line growth inhibition [CLK]; active means viability on the fitted dose curve at most 10% of control; inactive means the rest;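 also: spheroids exposed to the agents for 7 days before readout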
condition-description: second compound 10 µM; first compound 0.0316 µM
Thanks in advance; please answer with one of these: active, inactive

Here's what some known entries look like.
>>> assigned_class("CCCS(=O)(=O)Nc1ccc(F)c(C(=O)c2c[nH]c3ncc(-c4ccc(Cl)cc4)cc23)c1F + CNC(=O)c1ccc(Nc2nc(OC3CCCC3)c3c(-c4ccc5nc(C)oc5c4)c[nH]c3n2)c(OC)c1")
"inactive"
>>> assigned_class("Nc1ccn(C2OC(CO)C(O)C2(F)F)c(=O)n1 (stereo not given) + CNC(=O)c1ccc(Nc2nc(OC3CCCC3)c3c(-c4ccc5nc(C)oc5c4)c[nH]c3n2)c(OC)c1")
"inactive"
>>> assigned_class("COc1ccc([C@@H](O)c2cc(-c3ncnc4cc(N5CCOCC5)ccc34)c(F)cc2Cl)nn1 + CNC(=O)c1ccc(Nc2nc(OC3CCCC3)c3c(-c4ccc5nc(C)oc5c4)c[nH]c3n2)c(OC)c1")
"inactive"
>>> assigned_class("COC1C=CCC(C)C(C)S(=O)(=O)NC(=O)c2ccc3c(c2)N(CC2CCC21)CC1(CCCc2cc(Cl)ccc21)CO3 (stereo not given) + CN1CCN(c2cc(C(=O)Nc3cc4cc(-c5cnn(C)c5)ccc4cn3)ccn2)CC1")
"active"
>>> assigned_class("O=C(c1cc(Cc2n[nH]c(=O)c3ccccc23)ccc1F)N1CCN(C(=O)C2CC2)CC1 + CN1CCN(c2cc(C(=O)Nc3cc4cc(-c5cnn(C)c5)ccc4cn3)ccn2)CC1")
"active"
>>> assigned_class("CC1(C)CCC(CN2CCN(c3ccc(C(=O)NS(=O)(=O)c4ccc(NCC5CCOCC5)c([N+](=O)[O-])c4)c(Oc4cnc5[nH]ccc5c4)c3)CC2)=C(c2ccc(Cl)cc2)C1 + CN1CCN(c2cc(C(=O)Nc3cc4cc(-c5cnn(C)c5)ccc4cn3)ccn2)CC1")
"active"
>>> assigned_class("COc1c(OCCCN2CCOCC2)ccc2c3n(c(=NC(=O)c4cnc(N)nc4)nc12)CCN3 + CNC(=O)c1ccc(Nc2nc(OC3CCCC3)c3c(-c4ccc5nc(C)oc5c4)c[nH]c3n2)c(OC)c1")
"inactive"
>>> assigned_class("O=c1[nH]cc(F)c(=O)[nH]1 + CN1CCN(c2cc(C(=O)Nc3cc4cc(-c5cnn(C)c5)ccc4cn3)ccn2)CC1")
"active"

Tell me the recorded outcome of this test for Cn1ncnc1[C@H]1c2n[nH]c(=O)c3cc(F)cc(c23)N[C@@H]1c1ccc(F)cc1 + CN1CCN(c2cc(C(=O)Nc3cc4cc(-c5cnn(C)c5)ccc4cn3)ccn2)CC1 . active

Lookup COC1C=CCC(C)C(C)S(=O)(=O)NC(=O)c2ccc3c(c2)N(CC2CCC21)CC1(CCCc2cc(Cl)ccc21)CO3 (stereo not given) + CNC(=O)c1ccc(Nc2nc(OC3CCCC3)c3c(-c4ccc5nc(C)oc5c4)c[nH]c3n2)c(OC)c1 inactive
